All figures here come from patent EP4782453A1.

Kindly state IC50 for each of the entries shown.
- study-system: Menin-MLL (Homo sapiens)
- Construct: His-Menin (M1-L615 end); purchased BIORTUS BP9210
- test-description: Inhibitory activity against Menin-MLL binding (fluorescence polarization)
- condition-description: Menin-MLL IC50, fluorescence polarization; 150 nM His-Menin, 15 nM FITC-MLL; 25°C for 60 min
I only need the number, in nM, no unit after it.

Looking up Cc1ncc2c(-c3ccc(F)cc3C(=O)N(CC(F)F)C(C)C)cc(N3CCN(C(=O)C4NC5CCC4CC5)CC3)cn12 (stereo not drawn) , I see its IC50 listed as 44.5

Looking up CCN(C(=O)c1cc(F)ccc1-c1cc([C@H]2CCN(C[C@H]3CC[C@H](NS(=O)(=O)CC)CC3)C2)cc2cncn12)C(C)C , I see its IC50 listed as 21

Looking up CCN(C(=O)c1cc(F)ccc1-c1cc(C2CN([C@H](CN3CCN(C[C@@H](O)CO)CC3)C(C)C)C2)cc2c1cnn2C)C(C)C , I see its IC50 listed as 8.8

###

- study-system: Menin-MLL (Homo sapiens, UniProt O00255)
- Construct: His-Menin (M1-L615 end); purchased BIORTUS BP9210
- test-description: Inhibitory activity against Menin-MLL binding (fluorescence polarization)
- condition-description: Menin-MLL IC50, fluorescence polarization; 150 nM His-Menin, 15 nM FITC-MLL; 25°C for 60 min
Kindly state pIC50 for each of the entries shown.
On this scale, pIC50 is minus log10 of a concentration expressed in M (mol/L).

Looking up Cc1nc(F)c2c(-c3ccc(F)cc3C(=O)N3[C@H](C)COC[C@H]3C)cc(C3CN(C[C@H]4CC[C@H](n5cncn5)CC4)C3)cn12 , I see its pIC50 listed as 7.96

Looking up CCS(=O)(=O)N[C@H]1CC[C@H](CN2CC(c3cc(-c4ccc(F)cc4C(=O)N4CCC[C@H]4C)c4c(F)nc(C)n4c3)C2)CC1 , I see its pIC50 listed as 7.78

Looking up CCN(C(=O)c1cc(F)ccc1-c1cc(N2CCN(C(=O)[C@H]3N[C@@H]4CC[C@H]3C4)CC2)cn2c(C)ncc12)C(C)C , I see its pIC50 listed as 7.28

Looking up CCN(C(=O)c1cc(F)ccc1-c1cc(C2CCN(C[C@H]3CC[C@H](NS(=O)(=O)CC)CC3)C2)cn2cncc12)C(C)C (mixture of isomers) , I see its pIC50 listed as 7.60

Looking up CCN(C(=O)c1cc(F)ccc1-c1cc(C2CCN(C[C@H]3CC[C@H](NS(=O)(=O)CC)CC3)CC2)nn2c(C)ncc12)C(C)C , I see its pIC50 listed as 6.89

Looking up CCN(C(=O)c1cc(F)ccc1-c1cc(C2CN(C(CCCN3CCNC(CC#N)C3)C(C)C)C2)cn2c(C)ncc12)C(C)C (stereo not drawn) [Example 499] , I see its pIC50 listed as 8.68

###

- study-system: Menin-MLL (Homo sapiens)
- Construct: His-Menin (M1-L615 end); purchased BIORTUS BP9210
- Sequence (O00255 1-615 isoform O00255-1): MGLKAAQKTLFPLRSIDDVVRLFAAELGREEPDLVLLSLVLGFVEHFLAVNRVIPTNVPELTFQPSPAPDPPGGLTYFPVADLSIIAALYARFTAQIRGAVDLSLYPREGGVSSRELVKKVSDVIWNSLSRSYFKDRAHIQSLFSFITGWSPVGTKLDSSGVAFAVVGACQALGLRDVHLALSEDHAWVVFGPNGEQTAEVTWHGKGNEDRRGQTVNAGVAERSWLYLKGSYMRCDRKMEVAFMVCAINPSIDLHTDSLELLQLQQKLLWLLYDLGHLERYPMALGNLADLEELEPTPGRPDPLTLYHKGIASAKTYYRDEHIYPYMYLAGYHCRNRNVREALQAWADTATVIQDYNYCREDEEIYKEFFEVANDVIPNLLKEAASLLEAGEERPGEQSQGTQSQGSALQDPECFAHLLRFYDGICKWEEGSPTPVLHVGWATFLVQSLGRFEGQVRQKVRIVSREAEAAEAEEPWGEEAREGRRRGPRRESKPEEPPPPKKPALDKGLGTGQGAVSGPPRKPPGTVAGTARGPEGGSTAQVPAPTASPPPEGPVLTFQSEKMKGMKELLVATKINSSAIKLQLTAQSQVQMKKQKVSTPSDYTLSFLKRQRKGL
- test-description: Inhibitory activity against Menin-MLL binding (fluorescence polarization)
- condition-description: Menin-MLL IC50, fluorescence polarization; 150 nM His-Menin, 15 nM FITC-MLL; 25°C for 60 min
Kindly state pIC50 for each of the entries shown.
On this scale, pIC50 is minus log10 of a concentration expressed in M (mol/L).

Record for CCN(C(=O)c1cc(F)ccc1-c1cc(C2CCN(C[C@H]3CC[C@H](NS(=O)(=O)CC)CC3)C2)nc2c1cnn2C)C(C)C (mixture of isomers) under target or system Menin-MLL (Homo sapiens): pIC50 reported as 6.81

Record for Cc1ncc2c(-c3ccc(F)cc3C(=O)N(C(C)C)C3CC3)cc(N3CCN(C(=O)C4NC5CCC4CC5)CC3)cn12 (stereo not drawn) under target or system Menin-MLL (Homo sapiens): pIC50 reported as 7.27

Record for CCS(=O)(=O)N[C@H]1CC[C@H](C(C)N2CC(c3cc(-c4ccc(F)cc4C(=O)N4CCOC[C@H]4C)c4cnn(C)c4c3)C2)CC1 (stereo partly drawn) under target or system Menin-MLL (Homo sapiens): pIC50 reported as 6.94

###

- study-system: Menin-MLL (Homo sapiens)
- Construct: His-Menin (M1-L615 end); purchased BIORTUS BP9210
- Sequence (O00255 1-615 isoform O00255-1): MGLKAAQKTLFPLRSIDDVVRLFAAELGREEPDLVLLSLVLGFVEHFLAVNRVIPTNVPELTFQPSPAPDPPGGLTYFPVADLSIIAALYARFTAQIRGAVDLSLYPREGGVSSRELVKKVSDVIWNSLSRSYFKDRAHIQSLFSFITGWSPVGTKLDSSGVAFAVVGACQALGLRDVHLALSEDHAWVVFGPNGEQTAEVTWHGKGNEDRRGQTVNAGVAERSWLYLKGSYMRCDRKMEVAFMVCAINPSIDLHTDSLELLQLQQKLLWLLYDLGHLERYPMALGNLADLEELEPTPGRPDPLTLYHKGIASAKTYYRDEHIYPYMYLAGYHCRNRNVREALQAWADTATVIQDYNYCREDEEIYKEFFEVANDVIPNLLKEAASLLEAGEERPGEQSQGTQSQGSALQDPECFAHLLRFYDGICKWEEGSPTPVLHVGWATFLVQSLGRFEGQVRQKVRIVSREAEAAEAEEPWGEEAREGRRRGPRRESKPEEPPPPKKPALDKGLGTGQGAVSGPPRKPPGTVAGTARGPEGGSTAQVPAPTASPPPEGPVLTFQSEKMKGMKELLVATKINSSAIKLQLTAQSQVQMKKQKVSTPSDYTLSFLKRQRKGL
- test-description: Inhibitory activity against Menin-MLL binding (fluorescence polarization)
- condition-description: fluorescence polarization; 150 nM His-Menin, 15 nM FITC-MLL; 25°C for 60 min; read-out: Menin-MLL IC50
Kindly state pIC50 for each of the entries shown.
On this scale, pIC50 is minus log10 of a concentration expressed in M (mol/L).

Looking up CC(C)N(CC(F)F)C(=O)c1cc(F)ccc1-c1cc(C2CCN(C[C@@H]3CC[C@@H](NC(=O)OC(C)(C)C)CO3)C2)cc2c1cnn2C (stereo partly shown) [Example 158] , I see its pIC50 listed as 6.78

Looking up CCS(=O)(=O)NC1CCC(CN2CC(c3cc(-c4ccc(F)cc4C(=O)N(CC(F)F)C(C)C)c4cnccn34)C2)CC1 (stereo not shown) [Example 143] , I see its pIC50 listed as 8.57

Looking up Cc1nc(F)c2c(-c3ccc(F)cc3C(=O)N3CCOC[C@H]3C)cc(C3CN(CC4CCCOC4)C3)cn12 (stereo partly shown) [Example 235] , I see its pIC50 listed as 7.31

Looking up CO[C@H]1CCN(CCC[C@H](C(C)C)N2CC(c3cc(-c4ccc(F)cc4C(=O)N4CCOC[C@H]4C)c4cnn(C)c4c3)C2)C1 [Example 184-2] , I see its pIC50 listed as 7.89

Looking up Cc1nc(F)c2c(-c3ccc(F)cc3C(=O)N3CCOC[C@H]3C)cc(C3CN([C@H](CC[C@@H]4CNCCO4)C(C)C)C3)cn12 [Example 245-1] , I see its pIC50 listed as 8.07

Looking up Cc1nc(F)c2c(-c3ccc(F)cc3C(=O)N3[C@H](C)COC[C@H]3C)cc(C3CN(CC4CCN(C(=O)C5COC5)CC4)C3)cn12 [Example 216] , I see its pIC50 listed as 7.64

Looking up CO[C@@H]1CCN(CCC[C@H](C(C)C)N2CC(c3cc(-c4ccc(F)cc4C(=O)N4CCOC[C@H]4C)c4c(F)nc(C)n4c3)C2)C1 [Example 202] , I see its pIC50 listed as 8.37

Looking up CCS(=O)(=O)N[C@@H]1CC[C@@H](CN2CC(c3cc(-c4ccc(F)cc4C(=O)N(CC(F)F)C(C)C)c4cnc(C)n4c3)C2)OC1 [Example 150] , I see its pIC50 listed as 7.61

Looking up Cc1cncc2c(-c3ccc(F)cc3C(=O)N(CC(F)F)C(C)C)cc(CC3CN(CC4CCOCC4)C3)n12 [Example 206] , I see its pIC50 listed as 8.46

Looking up CCN(C(=O)c1cc(F)ccc1-c1cc(C2CN([C@H](CCCN(C)CCOC)C(C)C)C2)cn2c(C)nc(F)c12)C(C)C [Example 307-2] , I see its pIC50 listed as 8.22

Looking up CCN(C(=O)c1cc(F)ccc1-c1cc(C2CCN(C[C@H]3CC[C@H](NC(=O)OC(C)(C)C)CC3)C2)cn2cncc12)C(C)C (mixture of isomers) [Example 21] , I see its pIC50 listed as 7.73

Looking up Cc1nc(F)c2c(-c3ccc(F)cc3C(=O)N3[C@H](C)COC[C@H]3C)cc(C3CN(CC4CCN(C(=O)C(F)F)CC4)C3)cn12 [Example 219] , I see its pIC50 listed as 7.92

Looking up Cc1nc(F)c2c(-c3ccc(F)cc3C(=O)N3CCOC[C@H]3C)cc(C3CN([C@H](CCCN4CCn5nccc5C4)C(C)C)C3)cn12 [Example 351] , I see its pIC50 listed as 7.90
